experiment: chemical genetic growth profiling, strain panel (AID 1159580);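 also: tested at 20 µM; growth read once vehicle control cultures reached saturation at 30 °C; lower values mean less growth of the strain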; conditions: S. cerevisiae deletion strains, growth OD, locus YNL233W, strain BNI4
Screen size: about 5,500 compounds; about 2,000 (36%) were called active. Not shown: some 18% with an inconclusive outcome. Rule as the data show it: active = normalized growth mostly below about 0.91 (no sharp cut-off); inconclusive = no clear call, values can overlap the other calls; inactive = mostly above about 0.92. This is one part of the list.
Pick one: YES (active), NO (inactive)

Observe how each entry below is paired with its result.
INSERT INTO assay_data (compound, label_class) VALUES
  ('CO/N=C(\C(=O)NC1C(=O)N2C(C(=O)O)=C(COC(N)=O)CSC12)c1ccco1 (centres undefined)', 'YES'),
  ('CCCCN1CCCCC1C(=O)Nc1c(C)cccc1C (centres undefined)', 'NO'),
  ('COC(=O)[C@@H]1OC(=O)[C@H]2O[C@@]23[C@@]1(C)CCC1[C@@]2(C)CCC(=O)C(C)(C)C2C[C@@H](OC(C)=O)[C@]13C (some centres undefined)', 'NO'),
  ('CC[C@H](C)C(=O)O[C@H]1CCC=C2C=C[C@H](C)C(CCC3C[C@@H](O)CC(=O)O3)[C@H]21 (some centres undefined)', 'NO');

Tell me the recorded outcome of this test for COc1c(OC)c2occc2c2oc(=O)ccc12 .
NO

Tell me the recorded outcome of this test for COc1c2ccoc2c(OC)c2oc(=O)ccc12 .
NO

Tell me the recorded outcome of this test for O=C1NC(=O)C(=O)C(=O)N1 .
NO

Tell me the recorded outcome of this test for CO/N=C(\C(=O)N[C@@H]1C(=O)N2C(C(=O)O)=C(COC(C)=O)CS[C@H]12)c1csc(N)n1 .
NO

Tell me the recorded outcome of this test for CO/N=C(\C(=O)N[C@@H]1C(=O)N2C(C(=O)O)=C(CSc3nc(=O)c(O)nn3C)CS[C@H]12)c1csc(N)n1 .
NO

FYI, the data here is from PubChem BioAssay AID1159580.
